Target: PDE-5 (UniProt O76074)
Assay: In vitro PDE inhibitory activity against PDE5 (batch method or scintillation proximity assay)
Assay type: biochemical, human
Settings: representative compounds, read-out: IC50
measured property: IC50 (nM)
One number for each entry, in nM.

Reference set, count: 3
{"given smiles": "CCN(CC)c1nc(Nc2cc(C)ccn2)c2c(n1)c(C(=O)O)nn2CCOCC(F)(F)F", "display unit": "nM", "IC50": 3.94}
{"given smiles": "CCN(C)c1nc(Nc2cc(C)ccn2)c2c(n1)c(C(=O)O)nn2C[C@@H](C)OC", "display unit": "nM", "IC50": 25}
{"given smiles": "CCNc1nc(Nc2cc(C)ccn2)c2c(n1)c(C(=O)O)nn2CCOC(C)C", "display unit": "nM", "IC50": 4.58}

Hey, quick one: what's IC50 for each of these?
1. CCOCCn1nc(C(=O)OCC)c2nc(N3CCN[C@H](C)C3)nc(Nc3cc(C)ccn3)c21
2. CCOCCn1nc(C(=O)O)c2nc(N(C)C(C)C)nc(Nc3cc(F)ccc3F)c21
3. CCOCCn1nc(-c2nnn[nH]2)c2nc(N(C)C(C)C)nc(Nc3cc(C)ccn3)c21
4. Cc1ccnc(Nc2nc(N(C)C(C)C)nc3c(C(=O)NS(C)(=O)=O)nn(CCOCCCF)c23)c1

Given back:
1. 3.82
2. 41
3. 0.332
4. 0.17

Asked: Consider the compound shown here: `CCOCCn1nc(-c2nc(=O)o[nH]2)c2nc(N(C)CC)nc(Nc3ccc(F)c(C)c3)c21` What is its recorded IC50?
Given back: 0.162

----------
Please provide measured pIC50 for the entries that follow.
Molecular target: PDE-5 (UniProt O76074)
Test: In vitro PDE inhibitory activity against PDE5 (batch method or scintillation proximity assay)
Type: biochemical, human
Settings: representative compounds, read-out: IC50
Numbers only, as −log10 of the molar value.

These recorded examples may help you get a feel for the data.
{"compound": "CCOCCn1nc(C(=O)O)c2nc(N(C)CC)nc(Nc3cc(C)ncn3)c21", "meas value": 8.95}
{"compound": "Cc1ccnc(Nc2nc(N(C)C(C)C)nc3c(C(=O)NS(C)(=O)=O)nn(CCOCC(F)F)c23)c1", "meas value": 8.89}
{"compound": "CCOCCn1nc(-c2nc(=O)o[nH]2)c2nc(N(C)CC)nc(Nc3cc(C)ccn3)c21", "meas value": 9.33}
{"compound": "CCOCCn1nc(C(=O)O)c2nc(N(CC)CCOC)nc(Nc3cc(C)ccn3)c21", "meas value": 8.47}
{"compound": "CCCN(C)c1nc(Nc2cc(C)ccn2)c2c(n1)c(C(=O)O)nn2CCOCC", "meas value": 8.74}
{"compound": "CCOCCn1nc(C(=O)O)c2nc(N(C)CC)nc(Nc3cc(C)nc(C)n3)c21", "meas value": 7.00}

Provide the reported pIC50 of each entry below, same order.
1. CCOCCn1nc(C(=O)O)c2nc(N(C)C(C)C)nc(Nc3cccc(C)c3)c21
2. CCOCCn1nc(C(=O)O)c2nc(N(C)CC)nc(Nc3ccnc(C)n3)c21
3. CCOCCn1nc(C(=O)O)c2nc(N(C)C3CCCC3)nc(Nc3cc(C)ccn3)c21
4. CCOCCn1nc(C(=O)OCCN(C)C)c2nc(N(C)C)nc(Nc3cc(C)ccn3)c21
5. CCN(C)c1nc(Nc2cc(C)ccn2)c2c(n1)c(C(=O)O)nn2CCOCC(F)(F)F
6. CCOCCn1nc(C(=O)O)c2nc(N(C)C(C)C)nc(Nc3ccccc3F)c21

Given back:
1. 9.52
2. 7.28
3. 7.95
4. 8.73
5. 8.20
6. 8.01

Respectfully, I request pIC50 for each entry included below.
1. CCOCCn1nc(C(=O)O)c2nc(N(C)CCOC)nc(Nc3cc(C)ccn3)c21
2. CCOCCn1nc(C(=O)OC)c2nc(N(C)C)nc(Nc3cc(C)ccn3)c21
3. CCN(CC)c1nc(Nc2ccc(F)c(C)c2)c2c(n1)c(C(=O)O)nn2CCOCC(F)(F)F

Given back:
1: 8.53; 2: 9.03; 3: 10.00

For each of the items listed, what is its pIC50?
1. CCOCCn1nc(C(=O)NS(C)(=O)=O)c2nc(N(C)CC)nc(Nc3cc(C)ncn3)c21
2. Cc1ccnc(Nc2nc(N3CCCC3C)nc3c(C(=O)O)nn(CCOCC(F)(F)F)c23)c1 (stereo not drawn)
3. CCOCCn1nc(C(=O)O)c2nc(N(CC)CC)nc(Nc3ccc(=O)n(C)c3)c21
4. CCOCCn1nc(C(=O)O)c2nc(N(C)CC)nc(Nc3ccc(F)c(C)c3)c21

Given back:
1: 9.11; 2: 8.11; 3: 8.82; 4: 10.06

Respectfully, I request pIC50 for each entry included below.
1. CCOCCn1nc(C(=O)O)c2nc(N(C)C)nc(NC3CCOCC3)c21
2. Cc1ccnc(Nc2nc(N(C)C)nc3c(C(=O)O)nn(CCOC(C)C)c23)c1
3. Cc1ccnc(Nc2nc(N(C)C(C)C)nc3c(C(=O)O)nn(CCOC(C)C)c23)c1
4. CCOCCn1nc(C(=O)O)c2nc(N(C)C(C)C)nc(Nc3cc(F)cc(F)c3)c21
5. CCOCCn1nc(C(=O)NS(C)(=O)=O)c2nc(N(C)C(C)C)nc(Nc3cc(C)ccn3)c21
6. COCCn1nc(C(=O)O)c2nc(N(C)C(C)C)nc(Nc3cc(C)ccn3)c21
7. CCOCCn1nc(C(=O)O)c2nc(NC(C)C)nc(Nc3cc(C)ccn3)c21
8. CCOCCn1nc(C(=O)O)c2nc(N(C)C(C)C)nc(Nc3cc(C)ncn3)c21

Given back:
1: 7.26; 2: 7.88; 3: 9.30; 4: 8.30; 5: 9.57; 6: 8.15; 7: 8.69; 8: 9.20

Below are some compounds; for each one, tell me its pIC50.
1. CCOCCn1nc(C(=O)O)c2nc(N3CCCC3)nc(Nc3cc(C)ccn3)c21
2. CCOCCn1nc(C(=O)OC)c2nc(N(C)C(C)C)nc(Nc3cccc(C)n3)c21
3. CCOCCn1nc(C(=O)O)c2nc(N(C)C(C)C)nc(Nc3cccc(OC)n3)c21
4. CCOCCn1nc(C(=O)NS(C)(=O)=O)c2nc(N(C)C)nc(Nc3cc(C)ccn3)c21
5. CCN(CC)c1nc(Nc2cc(C)ccn2)c2c(n1)c(C(=O)NS(C)(=O)=O)nn2CCOCC(F)F
6. CCOCCn1nc(C(=O)O)c2nc(N(CC)CC)nc(Nc3cc(C)ccn3)c21

Given back:
[8.30, 8.54, 8.63, 8.32, 8.85, 8.96]

----------
Molecular target: UniProt:O76074
Assay: In vitro PDE inhibitory activity against PDE5 (batch method or scintillation proximity assay)
Type: biochemical, human
Details: representative compounds, read-out: IC50
pIC50: −log10 of the molar value.
Field: class. Source value: pIC50. Ranges: c1: < 8; c2: ≥ 8 and < 9; c3: ≥ 9

{"given smiles": "CCOCCn1nc(-c2nc(=O)o[nH]2)c2nc(N(C)C(C)C)nc(Nc3cc(C)ccn3)c21", "answer label": "c3"}

Asked: Form: Item = `CCOCCn1nc(C(=O)O)c2nc(N(C)CC(C)C)nc(Nc3cc(C)ccn3)c21` ; Class = ?
Given back: c3

----------
Assign IC50 to each entry below.
Target: PDE-5 (UniProt O76074)
Assay: In vitro PDE inhibitory activity against PDE5 (batch method or scintillation proximity assay)
Type: biochemical, human
Settings: representative compounds, read-out: IC50
The reply must contain the numeric value and, after it, the unit.

{"compound": "CCOCCn1nc(C(=O)O)c2nc(N(C)CC)nc(Nc3cccc(CC)n3)c21", "measured property": "IC50", "meas value": "9.74 nM"}
{"compound": "CCOCCn1nc(C(=O)O)c2nc(N(C)C(C)C)nc(Nc3ccnc(C)n3)c21", "measured property": "IC50", "meas value": "59.2 nM"}
{"compound": "CCOCCn1nc(C(=O)O)c2nc(N(C)C)nc(Nc3ccnc(OC)n3)c21", "measured property": "IC50", "meas value": "2.46 nM"}
{"compound": "CCOCCn1nc(C(=O)OC)c2nc(N(C)C(C)C)nc(Nc3cc(C)ccn3)c21", "measured property": "IC50", "meas value": "0.075 nM"}
{"compound": "CCOCCn1nc(C(=O)OC)c2nc(N3C[C@@H]4C[C@H]3CN4)nc(Nc3cc(C)ccn3)c21", "measured property": "IC50", "meas value": "2.62 nM"}
{"compound": "CCOCCn1nc(C(=O)O)c2nc(N(C)CC)nc(Nc3cc(C)c(C)cn3)c21", "measured property": "IC50", "meas value": "0.167 nM"}
{"compound": "CCOCCn1nc(C(=O)O)c2nc(N(CC)CC)nc(Nc3ccc(F)c(C)c3)c21", "measured property": "IC50", "meas value": "0.063 nM"}
{"compound": "CCOCCn1nc(C(=O)NS(C)(=O)=O)c2nc(N(C)CC)nc(Nc3cc(CO)ccn3)c21", "measured property": "IC50", "meas value": "0.398 nM"}

# batch: return IC50 for each of the 2 compounds below
1. CCOCCn1nc(C(=O)O)c2nc(N(C)C(C)CC)nc(Nc3cc(C)ccn3)c21 (centres unmarked)
2. CCOCCn1nc(C(=O)O)c2nc(N(C)CC)nc(Nc3cc(C)ccn3)c21

Given back:
["1.66 nM", "3.65 nM"]

Dear colleague, could you please provide IC50 for the compounds listed below?
1. CCOCCn1nc(C(=O)O)c2nc(N(C)C(C)C)nc(Nc3ccncn3)c21
2. CCOCCn1nc(C(=O)O)c2nc(N(C)CC)nc(Nc3ccc(C)c(C)c3)c21
3. CO[C@H](C)Cn1nc(C(=O)O)c2nc(N(C)C)nc(Nc3cc(C)ccn3)c21
4. CCCOCCn1nc(C(=O)O)c2nc(N(C)C(C)C)nc(Nc3cc(C)ccn3)c21

Given back:
["11.6 nM", "21.4 nM", "100 nM", "2.43 nM"]

Below are 7 compounds. Give each one its IC50.
1. CCOCCn1nc(C(=O)O)c2nc(N(C)C)nc(Nc3cc(C)ccn3)c21
2. CO[C@@H](C)Cn1nc(C(=O)O)c2nc(N(C)C(C)C)nc(Nc3cc(C)ccn3)c21
3. CCN(C)c1nc(Nc2cc(C)ccn2)c2c(n1)c(C(=O)NS(C)(=O)=O)nn2CCOCCCF
4. CCN(C)c1nc(Nc2ccc(F)c(C)c2)c2c(n1)c(C(=O)O)nn2CCOCC(F)(F)F
5. CCOCCn1nc(C(=O)O)c2nc(N(C)C)nc(Nc3cc(C)ccc3F)c21
6. CCOCCn1nc(C(=O)O)c2nc(N(C)C)nc(Nc3ccc(C)c(C)c3)c21
7. CCN(C)c1nc(Nc2cc(C)ccn2)c2c(n1)c(C(=O)O)nn2CCOCC1CC1

Given back:
1: 8.75 nM; 2: 7.7 nM; 3: 0.57 nM; 4: 0.068 nM; 5: 3.48 nM; 6: 38.2 nM; 7: 9.7 nM

Hi! Can you tell me IC50 for each of these compounds?
1. CCOCCn1nc(C(=O)O)c2nc(N(C)CC)nc(Nc3ccnc(OC)n3)c21
2. CCOCCn1nc(C(=O)O)c2nc(N(C)C(C)C)nc(NC3CCOCC3)c21
3. CCOCCn1nc(C(=O)O)c2nc(N(C)C(C)C)nc(Nc3cccc(C)n3)c21

Given back:
1. 0.451 nM
2. 27.8 nM
3. 2.45 nM

Provide IC50 for all items below, preserving their order.
1. CCOCCn1nc(C(=O)O)c2nc(N[C@@H](C)CC)nc(Nc3cc(C)ccn3)c21
2. Cc1cc(Nc2nc(N(C)C(C)C)nc3c(C(=O)O)nn(CCOCC(F)(F)F)c23)ccc1F

Given back:
2.6 nM
0.071 nM
